Measured protein stability index of individual entries
B1: STK38L (parent)
chain: RQLAYSTVGTPDYIAPEVFMQTGY

- Variants of: B1
- Measurement notes: protein stability index of a GFP-peptide fusion (GPS, HEK-293T) (PSI 1-6); higher = more stable;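 note: lentivirally expressed fusions sorted by FACS into six bins by GFP to DsRed ratio, PSI derived from sequencing read proportions per bin multiplied by bin number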
- Conditions: c terminus: a fixed tail appended
Quick one: just the number, no unit, thanks!

INSERT INTO measurements (mutation_name, reported_result) VALUES
  ('E17N', 1.97);

Here is another variant to look at.
Would you kindly share the measured protein stability index for Y24K ?
3.38
